Data origin, for the record: patent US12139492B2

Measured DC50, listed per entry for reference.
tested-target: UniProt Q06187
Sequence (Q06187 whole entry): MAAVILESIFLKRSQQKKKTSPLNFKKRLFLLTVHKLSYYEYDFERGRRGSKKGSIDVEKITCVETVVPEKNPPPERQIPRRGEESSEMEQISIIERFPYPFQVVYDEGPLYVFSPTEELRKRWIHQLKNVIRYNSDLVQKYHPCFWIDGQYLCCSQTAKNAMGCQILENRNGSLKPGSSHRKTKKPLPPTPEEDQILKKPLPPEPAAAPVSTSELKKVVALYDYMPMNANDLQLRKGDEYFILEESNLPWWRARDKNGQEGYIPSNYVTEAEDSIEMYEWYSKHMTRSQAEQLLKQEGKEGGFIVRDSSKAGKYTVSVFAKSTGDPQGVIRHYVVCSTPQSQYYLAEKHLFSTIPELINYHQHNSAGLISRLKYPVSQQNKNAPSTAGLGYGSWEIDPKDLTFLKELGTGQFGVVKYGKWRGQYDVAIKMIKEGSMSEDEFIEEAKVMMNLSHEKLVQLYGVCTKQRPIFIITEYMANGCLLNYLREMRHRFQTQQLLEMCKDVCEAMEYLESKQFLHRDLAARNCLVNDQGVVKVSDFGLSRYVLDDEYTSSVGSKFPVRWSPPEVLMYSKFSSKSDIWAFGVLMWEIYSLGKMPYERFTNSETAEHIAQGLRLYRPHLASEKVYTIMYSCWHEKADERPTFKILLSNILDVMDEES
experimental-details: Degradation of BTK protein in Namalwa cells (Western blot; DC50, Dmax)
test-parameters: read-out: DC50 (BTK degradation); concentration giving 50% reduction of BTK expression level; cell line not given

In: DC50 lookup needed for Nc1ncnc2c1c(-c1ccc(Oc3ccccc3)cc1)nn2C1CCN(C(=O)NCCN2CCN(c3ccc4c(c3)C(=O)N(C3CCC(=O)NC3=O)C4=O)CC2)CC1 (centres unmarked) , thanks.
Out: 10 to 50 nM

In: Form field: reported DC50 of Nc1ncnc2c1c(-c1ccc(Oc3ccccc3)cc1)nn2C1CCN(CC2CCN(CC3CN(CC4CN(c5ccc6c(c5)C(=O)N(C5CCC(=O)NC5=O)C6=O)C4)C3)C2)CC1 (centres unmarked)
Out: > 50 nM

In: Which value of DC50 has been reported for NC(=O)c1c(-c2ccc(Oc3ccccc3)cc2)nn2c1NCC[C@H]2C1CCN(CC2CCN(C(=O)N3CCC(N4CCC(c5ccc6c(c5)CN(C5CCC(=O)NC5=O)C6=O)CC4)CC3)CC2)CC1 (some centres unmarked) in the records?
Out: 10 to 50 nM

In: // lookup DC50 for Nc1ncnc2c1c(-c1ccc(Oc3ccccc3)cc1)nn2[C@@H]1CCCN(CC2CCN(C(=O)NC3CCC(=O)NC3=O)CC2)C1 (some centres unmarked)
Out: > 50 nM

In: So what does the record say about DC50 for Nc1ncnc2c1c(-c1ccc(Oc3ccccc3)cc1)nn2C1CCC(C(=O)NCCN2CCN(c3ccc4c(c3)C(=O)N(C3CCC(=O)NC3=O)C4=O)CC2)CC1 (centres unmarked) ?
Out: < 10 nM
